protocol: chemical genetic growth profiling, strain panel (AID 1159580);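 also: tested at 20 µM; growth read once vehicle control cultures reached saturation at 30 °C; 1 = growth at the plate median or of vehicle wells; lower values mean less growth of the strain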
condition.label: S. cerevisiae deletion strains, growth OD, locus YJL115W, strain asf1, hits give low values
About 2,000 (36%) of roughly 5,500 compounds were called active. Roughly 18% stayed inconclusive and do not appear here. The list shows a part of the results.
parameter.measured: normalized growth
Field format: numeric only.

Observe how each entry below is paired with its result.
• N[C@@H](CCC(=O)N[C@@H](CCSC(CC(=O)O)C(=O)O)C(=O)NCC(=O)O)C(=O)O (some centres undefined) = 1.01
• CN(Cc1cc(Br)cc(Br)c1N)C1CCCCC1 = 1.06
• COc1ccc(C[C@H](N)C(=O)N[C@@H]2[C@@H](CO)OC(n3cnc4c(N(C)C)ncnc43)[C@@H]2O)cc1 (some centres undefined) = 0.984
• COc1ccc(/C=C/c2cc(O)cc(O)c2)cc1 = 1.01
• Nc1ccc(S(=O)(=O)Nc2nccs2)cc1 = 1.02
• CCOC(N)=O = 0.999
• C=CC1=C(C)/C(=C/c2[nH]c(Cc3[nH]c(/C=C4\NC(=O)C(C)=C4C=C)c(C)c3CCC(=O)O)c(CCC(=O)O)c2C)NC1=O = 0.978
• COc1cc2c(cc1O)CC1c3c(cc(O)c(OC)c3-2)CCN1C (centres undefined) = 1.02
• CCC(COC(=O)c1cc(OC)c(OC)c(OC)c1)(c1ccccc1)N(C)C (centres undefined) = 0.957
• CC[C@]12CCCN3CCc4c(n(c5ccccc45)[C@](O)(C(=O)OC)C1)[C@@H]32 = 1

[in] Provide measured normalized growth value, entry: CC12CCCC(O)(C1)C1CC(C)(C)C1CC2 (centres undefined)
[out] 1.01

[in] Provide measured normalized growth value, entry: C[C@]12CCC3c4ccc(OS(=O)(=O)O)cc4CCC3C1CCC2=O (some centres undefined)
[out] 0.995

[in] Provide measured normalized growth value, entry: CCN(CC)CCOC(=O)C(Cc1cccc2ccccc12)CC1CCCO1 (centres undefined)
[out] 1

[in] Provide measured normalized growth value, entry: C#C[C@]1(O)CCC2C3CCc4cc(O)ccc4C3CC[C@@]21C (some centres undefined)
[out] 1.05

[in] Provide measured normalized growth value, entry: `CO[C@@H]1[C@@H](O[C@@H]2O[C@H](C)[C@@H](O[C@H]3C[C@@](C)(O)[C@H](O)[C@H](C)O3)[C@H](N(C)C)[C@H]2O)[C@@H](CC=O)C[C@@H](C)[C@@H](O[C@H]2CC[C@H](N(C)C)[C@@H](C)O2)/C=C/C=C/C[C@H](C)OC(=O)C[C@H]1O`
[out] 1.02

Origin of measurements: PubChem BioAssay AID1159580
